tested on: HBV; assay: antiviral assay in 2.2.15 cells producing HBV (virion DNA dot blot); assay type: cell-based, Hepatitis B virus; conditions: extra-cellular virus reduced by 50%; 2.2.15 cells, 9 days treatment; read-out: Antiviral EC50
# EC50 listing for each entry below
Give just the numeric value; µM need not be written.

Cc1ccccc1Nc1nc(NN=Cc2ccc3c(c2)OCO3)nc(Nc2ccc([N+](=O)[O-])cc2)n1 ... 1.1
COc1cccc(C=NNc2nc(Nc3ccccc3)nc(N3CCCC3)n2)c1O ... 4
COc1ccc(Nc2nc(NCCc3ccccc3)nc(N(C)C)n2)cc1OC ... 9.5
Oc1c(Br)cc(Cl)cc1/C=N/Nc1nc(Nc2cccc(C(F)(F)F)c2)nc(N2CCOCC2)n1 ... 66

Answer with the recorded EC50 of COc1ccc(C=NNc2nc(NCc3ccccc3)nc(Nc3ccccc3)n2)cc1 only.
3.8

Read the entry CCCCN(CCCC)c1nc(NN=Cc2ccc(Cl)cc2)nc(Nc2ccc([N+](=O)[O-])cc2)n1 and write its reported EC50.
15

Answer with the recorded EC50 of COc1ccc(C=NNc2nc(Nc3ccccc3)nc(Nc3ccc(C)cc3C)n2)c(OC)c1 only.
3.7
